Molecular target: Luciferin 4-monooxygenase (Photinus pyralis) (UniProt P08659)
Assay: qHTS of Nrf2 Activators: Hit Validation in Secondary FLuc Assay; also: nearly all actives have a fitted effect of over 65% in size
Settings: firefly luciferase inhibition counter-screen, luminescence; series mostly up to 57.5 µM
The whole screen tested about 1,100 compounds, of which about 390 (35%) were called active. Roughly 30% stayed inconclusive and do not appear here. Calls follow the shape of the dose curve; as a rule, active = well fitted inhibition curve with a large enough effect; inconclusive = small, poorly fitted or top-dose-only effect; inactive = flat fitted curve, though single readings scatter. This is one part of the list.
Outcome (select one): t = active, f = inactive

[
  {
    "compound": "CN(N=Cc1ccccc1O)c1ccc2ccccc2n1",
    "experimentalSystem": "Luciferin 4-monooxygenase (Photinus pyralis) (UniProt P08659)",
    "classification": "t"
  },
  {
    "compound": "O=C(Nc1cccn2ncnc12)c1cccc(C(F)(F)F)c1",
    "experimentalSystem": "Luciferin 4-monooxygenase (Photinus pyralis) (UniProt P08659)",
    "classification": "f"
  },
  {
    "compound": "O=C(/C=C/Nc1ccc(F)cc1)c1cccs1",
    "experimentalSystem": "Luciferin 4-monooxygenase (Photinus pyralis) (UniProt P08659)",
    "classification": "t"
  },
  {
    "compound": "O/N=C/c1ccc2cccc(OCc3ccccc3)c2n1",
    "experimentalSystem": "Luciferin 4-monooxygenase (Photinus pyralis) (UniProt P08659)",
    "classification": "f"
  },
  {
    "compound": "Cc1noc(C)c1COc1ccccc1C(=O)NNC(=O)c1ccccc1F",
    "experimentalSystem": "Luciferin 4-monooxygenase (Photinus pyralis) (UniProt P08659)",
    "classification": "f"
  },
  {
    "compound": "Cc1ccc(S(=O)(=O)c2nc(S(C)(=O)=O)sc2N2CCC(O)CC2)cc1",
    "experimentalSystem": "Luciferin 4-monooxygenase (Photinus pyralis) (UniProt P08659)",
    "classification": "f"
  },
  {
    "compound": "O=C(Nc1ccc(Cl)cn1)c1cnn2cccnc12",
    "experimentalSystem": "Luciferin 4-monooxygenase (Photinus pyralis) (UniProt P08659)",
    "classification": "t"
  },
  {
    "compound": "COc1cc2c(cc1NC(=O)c1ccco1)CCCC2",
    "experimentalSystem": "Luciferin 4-monooxygenase (Photinus pyralis) (UniProt P08659)",
    "classification": "t"
  }
]

Enquiry: For CSc1nc2sc3c(c2c(=O)n1C)CCC(C)C3 (configuration not stated) , what call appears in the results of this test?
Return: t

Enquiry: Which outcome did this test record for the compound Cc1cc2c(cc1C)N(C(=O)CCl)CC(=O)N2 ?
Return: f

Enquiry: Record request — test call for COc1cc(OC)c(NC(=O)c2ccco2)cc1Cl
Return: f

Enquiry: So what was the verdict on O=C1/C(=C\c2ccc(Cl)cc2)CCC1CNc1ccc(Cl)cc1 (configuration not stated) in this test?
Return: t

###

Biological target: Luciferin 4-monooxygenase (Photinus pyralis) (UniProt P08659)
Experiment: qHTS of Nrf2 Activators: Hit Validation in Secondary FLuc Assay; also: nearly all actives have a fitted effect of over 65% in size
Conditions: firefly luciferase inhibition counter-screen, luminescence; series mostly up to 57.5 µM
The whole screen tested about 1,100 compounds, of which about 390 (35%) were called active. Not shown: some 30% with an inconclusive outcome. Calls follow the shape of the dose curve; as a rule, active = well fitted inhibition curve with a large enough effect; inconclusive = small, poorly fitted or top-dose-only effect; inactive = flat fitted curve, though single readings scatter. The list shows a part of the results.
Lab note: assign the record to one of TRUE = active, FALSE = inactive

[
  {
    "smiles": "O=C(Nc1ncnc2sc3c(c12)CCC3)c1ccco1",
    "classification": "FALSE"
  }
]

Enquiry: Tell me the assay call for Cc1cc(C)cc(NC(=O)Nc2cccs2)c1 please.
Return: TRUE

Enquiry: Assay outcome for O=C(NNC(=O)c1nc(Cl)ccc1Cl)c1ccc(F)cc1 : what was it?
Return: FALSE

Enquiry: Identify the outcome logged in this assay for the molecule shown: c1ccc2c(-c3nc4ncccc4o3)cccc2c1
Return: TRUE

Enquiry: Give the logged outcome of this assay for the following molecule: O=C(CCCc1ccccc1)Nc1cccc([N+](=O)[O-])c1
Return: TRUE

###

Molecular target: Luciferin 4-monooxygenase (Photinus pyralis)
Experiment: qHTS of Nrf2 Activators: Hit Validation in Secondary FLuc Assay; also: nearly all actives have a fitted effect of over 65% in size
Conditions: firefly luciferase inhibition counter-screen, luminescence; series mostly up to 57.5 µM
About 390 (35%) of roughly 1,100 compounds were called active. Not shown: some 30% with an inconclusive outcome. The call rests on the fitted dose curve; in most records, active means well fitted inhibition curve with a large enough effect; inconclusive means small, poorly fitted or top-dose-only effect; inactive means flat fitted curve, though single readings scatter. Some of the results follow.
Valid outcomes are listed here; reply with one: active, inactive

[
  {
    "molecule": "CCOCCCNC(=O)c1ccc(-n2c(-c3ccccc3)cc3c2CCC(C)C3)cc1 (configuration not stated)",
    "experimentalSystem": "Luciferin 4-monooxygenase (Photinus pyralis)",
    "classification": "inactive"
  },
  {
    "molecule": "Cn1c(=O)n(CCc2ccccc2)c(=O)c2c1nc1n2CCN1Cc1ccco1",
    "experimentalSystem": "Luciferin 4-monooxygenase (Photinus pyralis)",
    "classification": "inactive"
  },
  {
    "molecule": "O=[N+]([O-])c1cccc(-c2nc(-c3ccccn3)no2)c1",
    "experimentalSystem": "Luciferin 4-monooxygenase (Photinus pyralis)",
    "classification": "active"
  },
  {
    "molecule": "COc1nc2ccc(C)cc2cc1-c1noc(-c2ccccc2)n1",
    "experimentalSystem": "Luciferin 4-monooxygenase (Photinus pyralis)",
    "classification": "inactive"
  },
  {
    "molecule": "O=[N+]([O-])c1cccc(-c2nnc(-c3ccccc3)o2)c1",
    "experimentalSystem": "Luciferin 4-monooxygenase (Photinus pyralis)",
    "classification": "active"
  },
  {
    "molecule": "N#Cc1c(-c2ccco2)cc(-c2ccc(F)cc2)nc1N",
    "experimentalSystem": "Luciferin 4-monooxygenase (Photinus pyralis)",
    "classification": "active"
  },
  {
    "molecule": "c1ccc(-c2noc(-c3cccc4ccccc34)n2)cc1",
    "experimentalSystem": "Luciferin 4-monooxygenase (Photinus pyralis)",
    "classification": "active"
  },
  {
    "molecule": "Brc1ccc(-c2nnc(-c3cccnc3)c3conc23)cc1",
    "experimentalSystem": "Luciferin 4-monooxygenase (Photinus pyralis)",
    "classification": "inactive"
  },
  {
    "molecule": "CN1c2ccsc2/C(=N/Nc2ccccc2)CS1(=O)=O",
    "experimentalSystem": "Luciferin 4-monooxygenase (Photinus pyralis)",
    "classification": "active"
  },
  {
    "molecule": "FC(F)(F)c1nnc2c(Sc3ccccn3)nc3ccccc3n12",
    "experimentalSystem": "Luciferin 4-monooxygenase (Photinus pyralis)",
    "classification": "inactive"
  }
]

Enquiry: Entry COc1cccc(-c2nc(-c3ccccc3)no2)c1 : call = ?
Return: active

Enquiry: Kindly provide the recorded test outcome for the following molecule: c1ccc(-c2noc(-c3cccnc3)n2)cc1
Return: active

Enquiry: So what was the verdict on O=C(c1ccco1)c1cn(CC(=O)N2CCCc3ccccc32)c2ccccc12 in this test?
Return: inactive

Enquiry: Could you kindly confirm the outcome this assay logged for COc1cccc(NC(=O)c2nc(SC)ncc2Cl)c1 ?
Return: inactive

###

Target: Luciferin 4-monooxygenase (Photinus pyralis) (UniProt P08659)
Test: qHTS of Nrf2 Activators: Hit Validation in Secondary FLuc Assay; also: nearly all actives have a fitted effect of over 65% in size
Conditions: firefly luciferase inhibition counter-screen, luminescence; series mostly up to 57.5 µM
Source text: Many diseases have some form of oxidative stress injury and ties to inflammation, causing a host of problems for the patient. The antioxidant response element (ARE) plays an important role in alleviating the harmful effects of oxidative stress. The antioxidant response element (ARE) is a transcriptional regulatory element involved in the activation of genes coding for a number of antioxidant proteins and detoxifying enzymes. […]
The campaign covered roughly 1,100 compounds. About 390 (35%) were called active. Inconclusive results (about 30%) are left out. Calls come from the whole dose curve; as a rule, active = well fitted inhibition curve with a large enough effect; inconclusive = small, poorly fitted or top-dose-only effect; inactive = flat fitted curve, though single readings scatter. The list shows a part of the results.
Returns: one label drawn from active, inactive

[
  {
    "compound": "CC1CCCCC1NC(=O)COC(=O)c1c2c(nc3ccccc13)/C(=C/c1ccco1)CC2 (stereo not given)",
    "classification": "active"
  },
  {
    "compound": "COc1ccc(/C(N)=N/OC(=O)c2cccc([N+](=O)[O-])c2)cc1",
    "classification": "active"
  },
  {
    "compound": "Cc1ccc(-c2nc(NCc3ccco3)c3ccccc3n2)cc1",
    "classification": "active"
  }
]

Enquiry: Record lookup: outcome of this test for Cn1c(N)c(C(=O)COC(=O)c2nc(Cl)ccc2Cl)c(=O)n(C)c1=O ?
Return: inactive

Enquiry: Give the logged outcome of this assay for the following compound: FC(F)(F)c1cc(-c2ccco2)nc(-n2nnc3ccccc32)n1
Return: inactive

Enquiry: Please let me know the test result on file for c1ccc(CNc2nc(NCc3ccco3)nc(N3CCOCC3)n2)cc1 .
Return: inactive

Enquiry: Please let me know the test result on file for O=[N+]([O-])c1cccc2ccc(/C=C/c3ccc(F)cc3)nc12 .
Return: active

Enquiry: Recorded test outcome, item O=C(NC(=S)Nc1ccccc1O)c1ccccc1Cl
Return: active

Enquiry: What did this assay record as the result for Cc1ccc(Cl)c2sc(NC(=O)C3CC3)nc12 ?
Return: inactive

Enquiry: Assay result, entry Oc1ccc(NCc2cccc(OCc3ccc(F)cc3)c2)cc1 — outcome?
Return: active

Enquiry: What call does the record list for O=[N+]([O-])c1ccc(/C=C/c2ccc3cccc([N+](=O)[O-])c3n2)cc1 ?
Return: inactive

Enquiry: Give the logged outcome of this assay for the following compound: O=C(NC(=S)Nc1cc(C(F)(F)F)ccc1Cl)c1ccccc1
Return: inactive

Enquiry: What is the recorded call for this compound in the test? CCC/C(=N\NC(=O)c1ccco1)c1ccc(Cl)s1
Return: inactive

Enquiry: Hey, what did the test say about N#C/C(=C\c1ccccc1)c1ccccn1 ?
Return: active

Enquiry: For Cn1c(=O)n(C)c2cc(NC(=O)c3cccc([N+](=O)[O-])c3)c(Br)cc21 , what call appears in the results of this test?
Return: inactive
